assay: Pharmacokinetics of GCK in SPF and pseudo-GF rats after single oral administration (LC-MS/MS of plasma); assay type: in vivo, Sprague-Dawley (SD) rats; conditions: Sprague-Dawley, rat, plasma, po, 22.5 mg/kg, SPF group, GCK 22.5 mg/kg single oral dose; read-out: Vz/F
READOUT: Vd/F (L/kg)
The figure you give is taken to be in L/kg; do not add the unit.

Ask: Provide measured Vd/F value, entry: CC(C)=CCCC(C)(OC1OC(CO)C(O)C(O)C1O)C1CCC2(C)C1C(O)CC1C3(C)CCC(O)C(C)(C)C3CCC12C (stereo not shown) [GCK, Ginsenoside Compound K]
Result: 96.5
